Listing of entries alongside the reported IC50.
Tested on: H1734
procedure text: Non Small Cell Lung Cancer proliferation assay (Alamar Blue reduction), H1734
Assay type: cell-based, human
test parameters: Homo sapiens, NCI-H1734, 48 h, H1734; 12 point doubling dilution 10 uM to 5 nM; 48 h treatment, alamar blue additional 48 h; read-out: IC50 H1734
State just the number; it will be interpreted in nM.

structure string	IC50 (nM)
O=C(Nc1ccc(Cl)cc1)c1ccc([N+](=O)[O-])o1	3470

Q) Output measured IC50 for this item: `Cc1cccc(-n2ncc(Cl)c(Cl)c2=O)c1`
A) 2140

Q) Output measured IC50 for this item: `Cc1ccc(NC(=O)c2ccc([N+](=O)[O-])o2)cc1`
A) 4420

Q) Output measured IC50 for this item: `O=c1c(Cl)c(Cl)cnn1-c1ccccc1`
A) 2280

====

Listing of entries alongside the reported inhibition at 10 µM.
Test system: H2030
procedure text: Non Small Cell Lung Cancer proliferation assay (Alamar Blue reduction), H2030
Assay type: cell-based, human
test parameters: Homo sapiens, NCI-H2030; primary screening; 10 μM compound in 1% DMSO (v/v); read-out: percentage inhibition H2030
State just the number; it will be interpreted in %.

Look over these answered cases.
molecule	measured parameter	measured result
O=c1c(SCc2ccc(Cl)cc2)c(SCc2ccccc2)cnn1-c1ccccc1	inhibition at 10 µM	-15
O=C(Cc1ccccc1)Oc1ccc(=O)n(-c2ccccc2)n1	inhibition at 10 µM	11
O=c1c(Cl)c(Cl)cnn1-c1ccc([N+](=O)[O-])cc1	inhibition at 10 µM	15
NCCOc1cnn(-c2ccccc2Cl)c(=O)c1Cl	inhibition at 10 µM	12
CN(C)c1c(Cl)cnn(-c2ccccc2)c1=O	inhibition at 10 µM	-5

Q) Output measured inhibition at 10 µM for this item: `COc1cnn(-c2ccccc2)c(=O)c1SCc1ccc(Cl)c(Cl)c1`
A) -14

Q) Output measured inhibition at 10 µM for this item: O=c1c(SCc2ccccc2)c(SC2CCCCO2)cnn1-c1ccccc1 (stereo not shown)
A) -8

Q) Output measured inhibition at 10 µM for this item: `COc1cnn(-c2cccc(C(F)(F)F)c2)c(=O)c1Cl`
A) 2

Q) Output measured inhibition at 10 µM for this item: `O=c1c(Cl)cc(Cl)nn1-c1ccccc1`
A) -13

Q) Output measured inhibition at 10 µM for this item: `O=c1c(SCc2ccccc2)c(SCc2ccccc2)cnn1-c1ccccc1`
A) -11

====

System: H460
procedure text: Dose response study (Alamar Blue), H460
Type: cell-based
test parameters: Homo sapiens, NCI-H460; H460; 12 point doubling dilution 10 uM to 5 nM; 48 h treatment, alamar blue additional 48 h; read-out: IC50 H460
Listing of entries alongside the reported pIC50.
Scale: pIC50 equals -log10([C]), with [C] in mol/L.

Look over these answered cases.
structure string	system tested	measured parameter	measured result
NCCCOc1cccc(-n2ncc(Br)c(Br)c2=O)c1	H460	pIC50	5.83
O=c1c(Cl)c(Cl)cnn1-c1ccc2c(c1)CCC2	H460	pIC50	5.18
CCc1cccc(-n2ncc(Cl)c(Cl)c2=O)c1	H460	pIC50	5.54

Q) Output measured pIC50 for this item: `O=c1c(Cl)c(Cl)cnn1-c1ccccn1`
A) 6.10

Q) Output measured pIC50 for this item: `COc1cccc(-n2ncc(Br)c(Br)c2=O)c1`
A) 6.04
